Listed here: items and their measured IC50.
Test system: LG0703-F948-PDC complex spheroid viability;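 further: spheroids exposed to agents for 7 days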
Test: Anticancer human tumor LG0703-F948-PDC patient-derived lung adenocarcinoma cell line growth inhibition [RAS]
Conditions: curve of first compound; second compound 0.00949 µM
Give a bare numeral; the unit µM is implied.

CC1(O)CCCC1n1c(=O)c(C(F)F)cc2cnc(NC3CCN(S(C)(=O)=O)CC3)nc21 (stereo not drawn) + CCn1c(-c2cccnc2C(C)OC)c2c3cc(ccc31)N1CCOC(CC(NC(=O)C(C(C)C)N(C)C(=O)C3(F)CCN(C(=O)C#CC(C)(C)N(C)C)CC3)C(=O)N3CCCC(N3)C(=O)OCC(C)(C)C2)C1; 9.59

Next compound, IC50 to be filled in.
Need IC50, item CC(Nc1ccc2c(c1)OCCn1cc(N3C(=O)OCC3C(F)F)nc1-2)C(N)=O (stereo not drawn) + CCn1c(-c2cccnc2C(C)OC)c2c3cc(ccc31)N1CCOC(CC(NC(=O)C(C(C)C)N(C)C(=O)C3(F)CCN(C(=O)C#CC(C)(C)N(C)C)CC3)C(=O)N3CCCC(N3)C(=O)OCC(C)(C)C2)C1
2.14
